Just for reference, ChEMBL document CHEMBL4257523 is where these values come from.

Assay: Antiproliferative activity against human MM1R cells
Format: functional, cell-based
Conditions: MM.1R
ASSAY READOUT: IC50 (µM)

1) CN(C)c1ccc(CNCCC(Cc2ccccc2)C2CCOC(C)(C)C2)cc1 (stereo unspecified) :: 5.4

---

Molecular target: Cyclin-dependent kinases regulatory subunit 1/S-phase kinase-associated protein 2 (Homo sapiens, UniProt P61024+Q13309)
Sequence (P61024 whole entry): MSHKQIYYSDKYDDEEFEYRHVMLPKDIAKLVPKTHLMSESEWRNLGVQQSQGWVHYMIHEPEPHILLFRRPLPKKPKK
Sequence (Q13309 whole entry): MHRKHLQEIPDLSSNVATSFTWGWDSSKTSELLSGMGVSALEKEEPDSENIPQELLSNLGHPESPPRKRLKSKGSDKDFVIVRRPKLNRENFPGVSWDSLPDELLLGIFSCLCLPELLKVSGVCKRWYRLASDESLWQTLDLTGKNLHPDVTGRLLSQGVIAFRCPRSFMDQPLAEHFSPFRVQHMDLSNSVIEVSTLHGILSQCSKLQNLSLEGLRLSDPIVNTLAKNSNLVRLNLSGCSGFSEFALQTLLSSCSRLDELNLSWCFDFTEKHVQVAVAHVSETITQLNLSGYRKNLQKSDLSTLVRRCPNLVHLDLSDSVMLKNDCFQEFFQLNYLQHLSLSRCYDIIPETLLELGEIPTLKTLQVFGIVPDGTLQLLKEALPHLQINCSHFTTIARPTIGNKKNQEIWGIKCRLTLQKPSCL
Assay: Inhibition of GST-tagged SKP2 (unknown origin)/His6-tagged CKS1 (unknown origin) expressed in Escherichia coli protein-protein interaction after 1 hr by Alpha screen assay
pIC50: −log10 of the molar value.
ASSAY READOUT: pIC50

1. O=C(OC12CC3CC(CC(C3)C1)C2)c1ccc(NCc2cc(O)ccc2O)cc1 :: 4.44

---

Experiment: Antiproliferative activity against human U266/LR6 cells
Type: functional, cell-based
Details: U-266
pIC50: −log10 of the molar value.
ASSAY READOUT: pIC50

1) CN(C)c1ccc(CNCCC(Cc2ccccc2)C2CCOC(C)(C)C2)cc1 (stereo unspecified) :: 5.37
